Data provenance: ChEMBL document CHEMBL1961873

target or test system: Ribosomal protein S6 kinase alpha-4 (Homo sapiens) (UniProt O75676);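 further: mean inhibition of MSK2, GSK PKIS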
Sequence (O75676 whole entry, looked up): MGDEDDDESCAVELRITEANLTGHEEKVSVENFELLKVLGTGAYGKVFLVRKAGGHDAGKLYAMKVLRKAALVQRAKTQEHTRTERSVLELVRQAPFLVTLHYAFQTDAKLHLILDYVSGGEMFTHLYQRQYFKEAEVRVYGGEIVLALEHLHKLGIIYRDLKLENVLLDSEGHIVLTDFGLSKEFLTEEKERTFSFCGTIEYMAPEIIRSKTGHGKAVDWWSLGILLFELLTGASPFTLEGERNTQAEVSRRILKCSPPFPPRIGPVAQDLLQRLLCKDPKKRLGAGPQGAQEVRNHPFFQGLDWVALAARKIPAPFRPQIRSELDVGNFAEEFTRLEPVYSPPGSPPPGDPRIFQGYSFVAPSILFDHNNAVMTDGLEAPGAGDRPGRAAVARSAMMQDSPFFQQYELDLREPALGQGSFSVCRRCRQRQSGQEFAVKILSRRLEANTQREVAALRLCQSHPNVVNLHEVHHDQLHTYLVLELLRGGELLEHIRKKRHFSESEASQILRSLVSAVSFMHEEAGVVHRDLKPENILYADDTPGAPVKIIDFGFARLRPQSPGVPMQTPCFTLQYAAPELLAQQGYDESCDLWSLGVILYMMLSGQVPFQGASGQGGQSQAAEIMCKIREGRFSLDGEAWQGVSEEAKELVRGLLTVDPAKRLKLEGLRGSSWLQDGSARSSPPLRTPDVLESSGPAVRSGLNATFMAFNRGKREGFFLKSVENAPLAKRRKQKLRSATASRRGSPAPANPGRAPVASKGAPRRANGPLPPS
settings: at 1 µM
Measured inhibition accompanies every entry in the list below.

| substance smiles | inhibition [%] |
| --- | --- |
| Cc1ccc2c(-c3ccnc(Nc4ccc5c(c4)OCCO5)n3)c(-c3ccc(C(F)(F)F)cc3)nn2n1 | 2.08 |
| Cc1ccc2c(c1)/C(=N/Nc1ccc(S(N)(=O)=O)cc1)C(=O)N2 | 2.32 |
| Nc1nccc(C#Cc2cncnc2Nc2ccc(OCc3cccc(F)c3)c(Cl)c2)n1 | 4.41 |
| COC(=O)c1ccc2c(c1)C(=Cc1cc(Br)c(O)c(Br)c1)C(=O)N2 | 6.18 |
| CC(C)c1ccc(Nc2nccc(-c3cnn4ncccc34)n2)cc1 | 2.98 |
| COC(=O)Nc1nc2cc(Oc3ccc(NC(=O)Nc4cccc(Br)c4)cc3)ccc2[nH]1 | 2.39 |
| Nc1nccc(-c2c(-c3ccc(F)cc3)ncn2CCCN2CCOCC2)n1 | 3.46 |
| Nc1nccc(-c2c(-c3ccc(F)cc3)nn3cc(C(F)(F)F)ccc23)n1 | -1.94 |
| COc1cccc(-n2nc(C)c3c(N/N=C(\C)c4ccncc4)ncnc32)c1 | 0.3 |
| Cc1cc(Cl)cc2c1NC(=O)C2=NNc1ccc(S(N)(=O)=O)cc1 | 3.47 |
| CC(C)c1ccc2c(c1)NC(=O)/C2=N/Nc1ccc(S(N)(=O)=O)cc1 | -1.31 |
| NS(=O)(=O)c1ccc(Nc2cc(-c3cccc(O)c3)n[nH]2)cc1 | 9.16 |
| COc1cc(Nc2nccc(-c3cnn4ncccc34)n2)cc(OC)c1 | 15.7 |
| [O-][S+]1CCN(Cc2ccc(-c3ccc4ncnc(Nc5ccc(OCc6ccccc6)c(Cl)c5)c4c3)o2)CC1 | 0.11 |

* * *

target or test system: cGMP-dependent protein kinase 1 (Homo sapiens) (UniProt Q13976);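 further: listed percent inhibition of PRKG1 is a mean value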
Sequence (Q13976 whole entry): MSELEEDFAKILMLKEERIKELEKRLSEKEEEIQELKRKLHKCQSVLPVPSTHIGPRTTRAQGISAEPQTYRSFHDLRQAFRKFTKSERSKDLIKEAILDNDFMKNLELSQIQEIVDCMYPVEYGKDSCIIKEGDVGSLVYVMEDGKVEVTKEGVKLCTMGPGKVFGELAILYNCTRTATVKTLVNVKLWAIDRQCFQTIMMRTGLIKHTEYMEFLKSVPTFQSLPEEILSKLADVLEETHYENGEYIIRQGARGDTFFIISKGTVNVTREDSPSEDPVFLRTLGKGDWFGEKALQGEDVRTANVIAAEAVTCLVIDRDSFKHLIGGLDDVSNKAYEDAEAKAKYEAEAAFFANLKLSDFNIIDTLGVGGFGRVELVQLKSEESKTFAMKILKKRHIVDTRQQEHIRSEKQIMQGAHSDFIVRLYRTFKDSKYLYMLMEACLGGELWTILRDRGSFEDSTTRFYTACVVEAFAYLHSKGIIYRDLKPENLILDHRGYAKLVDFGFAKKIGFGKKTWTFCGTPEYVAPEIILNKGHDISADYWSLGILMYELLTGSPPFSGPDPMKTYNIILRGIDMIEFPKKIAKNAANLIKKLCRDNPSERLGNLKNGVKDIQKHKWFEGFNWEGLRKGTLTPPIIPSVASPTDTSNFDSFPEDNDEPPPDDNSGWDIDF
settings: at 1 µM
As shown below, each of these compounds has a reported inhibition value.

| substance smiles | unit descriptor | inhibition |
| --- | --- | --- |
| COC(=O)Nc1nc2cc(Oc3ccc(NC(=O)Nc4cccc(Br)c4)cc3)ccc2[nH]1 | % | 2.02 |
| Oc1cccc(-c2nc(-c3ccccc3)[nH]c2-c2ccncc2)c1 | % | 5.69 |
| NS(=O)(=O)c1cccc(-c2cc3ccncc3cc2OCc2ccccc2)c1 | % | 4.53 |
| COC(=O)c1cncc(/C=C/c2c(C)cc(O)cc2C)c1 | % | 2.75 |
| CN(c1ccc(NC(=O)Nc2ccc(OC(F)(F)F)cc2)cc1)c1ccnc(Nc2cccc(S(N)(=O)=O)c2)n1 | % | 0.56 |
| CCn1c(-c2nonc2N)nc2ccc(F)cc21 | % | 14.5 |
| COc1cc2ncnc(Nc3ccc4c(cnn4Cc4ccccc4)c3)c2cc1OC | % | 1.78 |

* * *

target or test system: Serine/threonine-protein kinase TBK1 (Homo sapiens);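 further: values are mean inhibition of TBK1, screened as part of the GSK published kinase inhibitor set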
settings: at 1 µM
# inhibition >= 10% gives fulfilled, anything below gives not fulfilled

| substance smiles | target or test system | class label |
| --- | --- | --- |
| NS(=O)(=O)c1ccc(NC=C2C(=O)Nc3ccc4ncsc4c32)cc1 | Serine/threonine-protein kinase TBK1 (Homo sapiens) | fulfilled |
| CC(C)c1ccc(Nc2nccc(-c3cnn4ncccc34)n2)cc1 | Serine/threonine-protein kinase TBK1 (Homo sapiens) | fulfilled |
| NC(=O)c1sc(-n2cnc3ccccc32)cc1OCc1ccccc1Br | Serine/threonine-protein kinase TBK1 (Homo sapiens) | not fulfilled |
| COC(=O)c1cncc(/C=C/c2c(C)cc(O)cc2C)c1 | Serine/threonine-protein kinase TBK1 (Homo sapiens) | not fulfilled |
| [O-][S+]1CCN(Cc2ccc(-c3ccc4ncnc(Nc5ccc(OCc6ccccc6)c(Cl)c5)c4c3)o2)CC1 | Serine/threonine-protein kinase TBK1 (Homo sapiens) | not fulfilled |
